The following molecules each carry a recorded GI50 for NCI-H460 lung.
Quantity kind: GI50

>>> df
                                   molecule  quantity_kind  assay_result
0  CN(C)Cc1ccc(NC(=O)c2cncc(C#Cc3cnc(N)c4ncccc34)c2)cc1C(F)(F)F           GI50       1670 nM
1  CCN(Cc1ccc(Cl)c(Cl)c1)c1ccc2nc(N)nc(N)c2c1C           GI50       < 10 nM
2  CCc1nc(N)nc(N)c1C#CC(C)c1ccc(-c2ccncc2)cc1Cl (centres undefined)           GI50        < 5 nM
3           OCc1c(-c2cccs2)oc(-c2cccs2)c1CO           GI50      28400 nM

* * *

System: NCI-H23 lung
Assay: NCI tumour cell line growth inhibition, 48 h
Quantity kind: TGI (µM)

In [3]: df
Out[3]:
                                    compound  unit_of_measure  result_modifier  assay_result
 0  COc1ccc(-c2nc(NC(=O)CS(=O)(=O)c3ccc(F)cc3)sc2C)cc1               µM                >           100
 1                       CC(=O)CC[N+](C)(C)C               µM                =          59.6
 2         O=C(COc1cc(=O)oc2ccccc12)c1ccccc1               µM                =          65.2
 3                       O=S(=O)(F)Cc1ccccc1               µM                >           100
 4  O=C(O)/C=C/c1c2ccc(=O)c(O)c-2oc2c(O)c(O)ccc12               µM                >           100
 5  Cc1cccc(NC(=O)c2c(N)[n+]([O-])c3ccccc3[n+]2[O-])c1               µM                =          23.4
 6     CCO/N=C\c1ccc2oc(-c3ccccc3)cc(=O)c2c1               µM                =          9.05
 7  COc1cc(/C=C2\C(=O)N(c3cccc(NC(C)=O)c3)C(c3ccccc3)S2(=O)=O)cc(OC)c1OC (stereo unspecified)               µM                >           100
 8  COc1c(C(=O)/C(=N/Nc2ccc(C(=O)O)cc2)C(C)=O)c(O)cc2occc12               µM                >           100
 9  Cn1c(=O)nc2n(-c3ccc(Br)cc3)c3ccccc3nc-2c1=O               µM                =           4.2
10   COc1ccc(-c2c(C#N)c(N)[nH]c(=S)c2C#N)cc1               µM                >           100

* * *

System: SF-268 CNS
Test: NCI tumour cell line growth inhibition, 48 h
Quantity kind: GI50

>>> print(df.to_string())
                                chem_smiles  assay_result
0      Nc1[nH]nc(Nc2ccccc2)c1-c1nc2ccccc2s1       2360 nM
1  O=C(c1ccc(Cl)cc1Cl)N1CCN(C(=O)c2ccc(Cl)cc2Cl)C1=S      24500 nM
2  O=[N+]([O-])c1ccc(Sc2cccc[n+]2[O-])c2nonc12       5270 nM
3  COc1ccc(C2=Nn3c(nnc3-c3ccc(F)c(Cl)c3)SC2)cc1   > 100000 nM
4  COc1ccc(-n2nc(C)c3c(Nc4ccc(NC(=O)Nc5cccc(C(F)(F)F)c5)cc4)ncnc32)cc1       2140 nM
5    COc1ccc(C2=C(c3ccc(OC)cc3)C(=O)OC2)cc1       1520 nM

* * *

System: MDA-MB-435
Experiment: NCI tumour cell line growth inhibition, 48 h
Quantity kind: TGI (µM)

In [3]: df
Out[3]:
                                   compound  result_modifier  assay_result
0  N=c1oc2ccc3ccccc3c2cc1-c1nc2ccccc2c(=O)[nH]1                >           100
1      O=C(O)CCC(O)=C1S(=O)(=O)OCCOS1(=O)=O                >           100
2  CC1=NNC(=O)C1C1(C(=O)O)CC(c2c[nH]c3ccccc23)=NC(=S)N1 (stereo not given)                >           100
3  C=C1C(=O)OC2CC1C(OC(=O)/C=C/c1ccccc1)C/C(C)=C/CC/C(C)=C/CCC2(C)O (stereo not given)                =          3.76
4      Nc1[nH]nc(Nc2ccccc2)c1-c1nc2ccccc2s1                =          4.89

* * *

System: HL-60(TB) leukemia
Assay: NCI tumour cell line growth inhibition, 48 h; in the data active = GI50 below about 0.43 µM; inactive = the rest
Outcomes: active, inactive

>>> df
                                   compound                 tgt  label_value
0    O=C(CSSCC(=O)c1ccc(Cl)cc1)c1ccc(Cl)cc1  HL-60(TB) leukemia     inactive
1  CCN1C(=O)N(CC)C2C1NN=c1s/c(=C3\C(=O)Nc4ccccc43)c(=O)n12 (centres undefined)  HL-60(TB) leukemia       active
2  C[C@H]1C[C@@H](n2c(Nc3ccc(OC(F)(F)F)cc3)nc3cc(CCC(=O)O)ccc32)CC(C)(C)C1  HL-60(TB) leukemia     inactive
3  COc1ccc(-n2nc(C)c3c(Nc4ccc(NC(=O)Nc5cccc(C(F)(F)F)c5)cc4)ncnc32)cc1  HL-60(TB) leukemia     inactive
4  COc1ccc(Cn2cc3c(c2-c2ccccc2)CCc2cnoc2-3)cc1  HL-60(TB) leukemia       active
5  O=C(O)CCCN1C(=O)/C(=C/C(Cl)=C/c2ccccc2)SC1=S  HL-60(TB) leukemia     inactive
6  COc1ccc(-n2cc(-c3cc(OC)c(OC)c(OC)c3)nc2SCc2cccc(C#N)c2)cc1OC  HL-60(TB) leukemia     inactive
7  CCCC(=O)Oc1ccc(/C(=C(\C)c2ccc(Cl)cc2)c2ccc(OCCN(CC)CC)cc2)cc1  HL-60(TB) leukemia     inactive
8  Nc1c(C(=O)c2cccc(-c3cccnc3)c2)cnn1-c1ccc(F)cc1  HL-60(TB) leukemia     inactive

* * *

The entries below come with measured TGI values attached.
Test system: SK-MEL-28 melanoma
Assay: NCI tumour cell line growth inhibition, 48 h
Quantity kind: TGI

>>> print(df.to_string())
                                    compound  quantity_kind  assay_result
 0  Cc1[nH]n(-c2nc(-c3ccccc3)cc(=O)[nH]2)c(=O)c1CCO            TGI      > 100 µM
 1  COc1ccc(C2=Nn3c(nnc3-c3ccc(F)c(Cl)c3)SC2)cc1            TGI      > 100 µM
 2  CC(=O)C1=C(C)N(c2ccccc2)C2(O)C3=C(C(=O)c4ccccc4C3=O)C(O)=CC12Cl (stereo not given)            TGI       23.6 µM
 3  COc1ccc2c(=O)c(-c3cc(OC)c(OC)cc3OC)coc2c1            TGI      > 100 µM
 4                COc1cc2c(cc1OC)C(CCN)=NCC2            TGI       33.2 µM
 5  O=C1c2c(c3c4cc(F)ccc4oc3c3[nH]c4ccccc4c23)C(=O)N1O            TGI      > 100 µM
 6  O=C(Cn1c2ccc(Br)cc2c2nc3ccccc3nc21)NCc1ccccc1            TGI      > 100 µM
 7       O=S1(=O)OCCOS(=O)(=O)C1(F)Cc1ccccc1            TGI      > 100 µM
 8  CN1C/C(=C\c2cccs2)C2=NN(c3ccccc3)C(c3cccs3)C2C1 (stereo not given)            TGI      > 100 µM
 9  C=CC[P@]1(=O)O[C@H](c2ccccc2)C(C)N1C(C)C (stereo not given in full)            TGI      > 100 µM
10              Cc1nc2c(Cl)cc(Cl)cc2c2c1CCO2            TGI      > 100 µM
11  N[C@H]1CCC[C@@H](O)C1O (stereo not given in full)            TGI      > 100 µM
12  COC1CCCc2c(OC(C)=O)ccc(OC(C)=O)c21 (stereo not given)            TGI      > 100 µM
13  C[C@H]1C[C@@H](n2c(Nc3ccc(OC(F)(F)F)cc3)nc3cc(CCC(=O)O)ccc32)CC(C)(C)C1            TGI       22.5 µM
14  COc1ccc(N2C(=O)C3ON(Cc4ccc(CC(N)=O)cc4)C(c4c5ccccc5c(C)c5ccccc45)C3C2=O)cc1 (stereo not given)            TGI      > 100 µM
15  COP(=O)(OC)C(N)Cc1c[nH]c2ccccc12 (stereo not given)            TGI      > 100 µM
16                  CCC1(CC)C(=O)NC(=O)NC1=S            TGI      > 100 µM
17  COC(=O)c1ccc(OCCn2nnc(C(=O)NN)c2C(=O)NN)cc1            TGI      > 100 µM
18  O=C(O)c1cccc([As]=[As]c2cccc(C(=O)O)c2)c1 (stereo not given)            TGI      > 100 µM
19  CC(=O)OC1(Sc2ccccc2)CC2[C@H]3COC(C)(C)O[C@H]3CC[C@@]2(C)CC1=O (stereo not given in full)            TGI      > 100 µM
20  C=CCCC(O)c1cc(C)c(O)c(C)c1 (stereo not given)            TGI      > 100 µM
21  Nc1cc(C2CCCc3c2[nH]c2ccccc32)ccc1O (stereo not given)            TGI      > 100 µM
22  C=C1C(=O)OC2CC1C(OC(=O)/C=C/c1ccccc1)C/C(C)=C/CC/C(C)=C/CCC2(C)O (stereo not given)            TGI       15.6 µM
23  CCOP(=O)(OCC)C(c1ccc(F)cc1)N(C(=O)NC(F)(F)F)c1ccc(F)cc1 (stereo not given)            TGI      > 100 µM
24  O=c1c(NCc2ccccc2)c(C2(c3ccccc3F)SCCCS2)c1=O            TGI      > 100 µM

These measurements were taken from PubChem BioAssay (NCI).
